Data origin, for the record: PubChem BioAssay

We begin with a simple list: items and their reported growth inhibition.
# Protocol Notes: OD615 S. cerevisiae growth inhibition, permissive medium, pilot counter-assay, permissive growth control for S. cerevisiae lifespan shortening project (AID 705)
# Condition Parameters: OD615, 24 h, at 10 µM, active compounds read high
Calls of active or inactive are those of the source.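 How the source made its calls: active means growth inhibition above 25% in both replicates, a cutoff set 3 SD above the mean; inconclusive means above 25% in only one replicate; inactive means the rest.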

The examples below pair each entry with its known result.
COc1cc2ccccc2cc1-c1nnc(COc2ccccc2)o1; -8.96% (inactive)
O=C1c2ccccc2C(O)N1Cc1ccccc1Cl (centres undefined); -1.72% (inactive)
CCOC(=O)C1=C(C)N(C)C(C)=C(C(=O)OCC)C1c1ccccn1; -13.2% (inactive)

Now let's try a different one.
Entry O=C(Cn1cc2c(n1)CCCCC2)N1CCCCC1 needs its growth inhibition filled in; supply it. -4.8% (inactive)

====

# Protocol Notes: RAM signaling pathway blockade in yeast – S. cerevisiae, Pdr1DBD-CYC8 efflux-inhibited sensitized strain, primary screen (AID 1298);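 further: 0% = DMSO untreated cells without growth and 100% = 10 µM 1-NA-PP1 full growth; higher means more yeast growth rescued from 5-FOA killing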
# Condition Parameters: S. cerevisiae cbk1-as DSE1-URA3 strain, 5-FOA growth OD615, 2 d; at 50 µM; active compounds read high
Calls of active or inactive are those of the source.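 The calls were made as follows: active = RAM network inhibition above 8.4% in each of two replicates, 3 SD over the compound average; inconclusive = above 8.4% inhibition in only one replicate; inactive = 8.4% inhibition or less in each replicate.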
Measured Quantity: RAM network inhibition

O=c1cc(CO)oc(C(Nc2ccccn2)c2ccccc2F)c1O (stereo unspecified); 2.91% (inactive)

Entry COc1ccc(CN2CC34C=CC(O3)C(C(=O)O)C4C2=O)cc1 (stereo unspecified) needs its RAM network inhibition filled in; supply it. 3.17% (inactive)

Entry Cn1nc(-c2ccc(Cl)cc2)c2cc(C(=O)N3CCN(c4ccccc4)CC3)sc21 needs its RAM network inhibition filled in; supply it. 5.19% (inactive)

Entry Clc1ccc(CCNc2ncnc3nc[nH]c23)cc1 needs its RAM network inhibition filled in; supply it. 2.97% (inactive)

Entry Cn1c(=O)c2c(nc(-n3ccnc3)n2Cc2ccc(Cl)cc2Cl)n(C)c1=O needs its RAM network inhibition filled in; supply it. 5.62% (inactive)

Entry O=C(O)c1cc(Cl)c(Cl)cc1C(=O)N1CCOCC1 needs its RAM network inhibition filled in; supply it. 1.67% (inactive)

Entry Cn1c(Cn2c(=O)sc3ccccc32)nnc1SCC(=O)Nc1cccc(F)c1 needs its RAM network inhibition filled in; supply it. 1.86% (inactive)

Entry CCOC(=O)c1cccc(NC(=O)Cn2cc3c(n2)CCC(C)C3)c1 (stereo unspecified) needs its RAM network inhibition filled in; supply it. 0.81% (inactive)

Entry CC1(C)Cc2c(C#N)c(NCCCO)nc(-c3ccccc3)c2CO1 needs its RAM network inhibition filled in; supply it. -0.94% (inactive)

Entry CCOC(=O)C(C)n1cnc2sc3c(c2c1=O)CCC3 (stereo unspecified) needs its RAM network inhibition filled in; supply it. 1.15% (inactive)

Entry COc1ccccc1NC(=O)Nc1ccnn1C1CCCCC1 needs its RAM network inhibition filled in; supply it. 0.5% (inactive)

Entry NC(=O)c1cc(Cl)cn(-c2ccccc2)c1=O needs its RAM network inhibition filled in; supply it. 4.23% (inactive)

Entry CC(=O)c1ccc(OCC(O)Cn2nnc3ccccc32)cc1 (stereo unspecified) needs its RAM network inhibition filled in; supply it. 7.79% (inactive)

Entry CC(C)NS(=O)(=O)c1ccc(CCC(=O)NCc2cccnc2)cc1 needs its RAM network inhibition filled in; supply it. 1.08% (inactive)

====

# Protocol Notes: viability gain of MRP-1-high H69AR cells under doxorubicin, pilot screen, MRP-1 activator project, CellTiter-Glo, duplicate (AID 807);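 further: compound pretreatment 18-22 h then 72 h combined with doxorubicin; 0% = doxorubicin alone and 100% = vehicle without doxorubicin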
# Condition Parameters: H69AR viability with doxorubicin, CellTiter-Glo luminescence; at 10 µM; active compounds read high
We begin with a simple list: items and their reported viability increase.
Please state the figure in %; there is no need to write the unit.

The examples below pair each entry with its known result.
C(=N\n1cnnc1)/C1CCCCC1; -2.8
CSc1ccc(S(=O)(=O)N2CCN(Cc3ccc4c(c3)OCO4)CC2)cc1; -4.46
CCN1C(=O)NC2C1N(S(C)(=O)=O)CCN2S(C)(=O)=O (stereo unspecified); -0.57

Entry Cc1ccc(NC(=O)NCCN2C(=O)C3C4C=CC(C4)C3C2=O)cc1 (stereo unspecified) needs its viability increase filled in; supply it. -0.07

Entry COC(=O)c1ccc(CSc2nc3c(c(=O)n2-c2ccc(F)cc2)SCC3)o1 needs its viability increase filled in; supply it. -3.02

Entry CCn1c(SCC(=O)N2CCN(c3ccccc3)CC2)nc2c(c1=O)SC(C)C2 (stereo unspecified) needs its viability increase filled in; supply it. -2.66
